experiment: Pharmacokinetic study in rats after oral administration of GR extract (UHPLC-MS/MS of plasma); assay type: in vivo, Sprague-Dawley rats; conditions: rat plasma, GR extract 9.6 g/kg intragastric gavage, mean ± SD, n = 6
recorded_endpoint: CL (clearance) (mL/min/kg)

A. O=C(O)CC(O)(CC(=O)OCc1ccc(O[C@@H]2O[C@H](CO)[C@@H](O)[C@H](O)[C@H]2O)cc1)C(=O)OCc1ccc(O[C@@H]2O[C@H](CO)[C@@H](O)[C@H](O)[C@H]2O)cc1 (some centres unmarked) [Parishin B]
B. O=C(O)c1ccc(O)cc1 [p-Hydroxybenzoic acid]
Q. For the pair A and B , which entry has the numerically smaller recorded CL (clearance)? Please identify the chosen entry by its label.
A. B
(B: 218 mL/min/kg, A: 899.2 mL/min/kg)

A. O=Cc1ccc(O)cc1 [p-Hydroxybenzaldehyde]
B. O=C(O)CC(O)(CC(=O)OCc1ccc(O[C@@H]2O[C@H](CO)[C@@H](O)[C@H](O)[C@H]2O)cc1)C(=O)O (some centres unmarked) [Parishin E]
C. OCc1ccc(O)cc1 [p-Hydroxybenzyl alcohol]
Q. Arrange items by their CL (clearance) values in increasing order. Respond with an ordered listing of the labels, as requested.
A. C, B, A
(C: 0.5 mL/min/kg, B: 26.3 mL/min/kg, A: 6285.8 mL/min/kg)

###

test: Pharmacokinetic study in rats after oral administration of GR extract (UHPLC-MS/MS of plasma); assay type: in vivo, Sprague-Dawley rats; conditions: rat plasma, GR extract 9.6 g/kg intragastric gavage, mean ± SD, n = 6
recorded_endpoint: Vz (apparent volume of distribution) (L/kg)

Some solved cases for reference:
Q. Fill blank: measured Vz (apparent volume of distribution) of the compound NC(=O)c1cccnc1 [Nicotinamide] is ____.
A. 1588.63

Q. Fill blank: measured Vz (apparent volume of distribution) of the compound O=C(O)c1ccc(O)cc1 [p-Hydroxybenzoic acid] is ____.
A. 116.74

Q. Fill blank: measured Vz (apparent volume of distribution) of the compound O=C(O)CC(O)(CC(=O)OCc1ccc(O[C@@H]2O[C@H](CO)[C@@H](O)[C@H](O)[C@H]2O)cc1)C(=O)O (some centres unmarked) [Parishin E] is ____.
A. 41.00

A. O=C(O)CC(O)(CC(=O)OCc1ccc(O[C@@H]2O[C@H](CO)[C@@H](O)[C@H](O)[C@H]2O)cc1)C(=O)OCc1ccc(O[C@@H]2O[C@H](CO)[C@@H](O)[C@H](O)[C@H]2O)cc1 (some centres unmarked) [Parishin B]
B. O=Cc1ccc(O)cc1 [p-Hydroxybenzaldehyde]
Q. Between A and B , whose recorded Vz (apparent volume of distribution) is greater? Please identify the chosen entry by its label.
A. B
(B: 4220.87 L/kg, A: 215.10 L/kg)

###

assay: Pharmacokinetic study in rats after oral administration of GR extract (UHPLC-MS/MS of plasma); format: in vivo, Sprague-Dawley rats; conditions: male, Sprague-Dawley, po; rat plasma, GR extract 9.6 g/kg intragastric gavage, mean ± SD, n = 6; read-out: λz (terminal elimination rate constant) (converted)
recorded_endpoint: k el (s⁻¹)

Q. Fill blank: measured k el of the molecule O=Cc1ccc(O)cc1 [p-Hydroxybenzaldehyde] is ____.
A. 7.78e-05

Q. Fill blank: measured k el of the molecule O=C(O)CC(O)(CC(=O)OCc1ccc(O[C@@H]2O[C@H](CO)[C@@H](O)[C@H](O)[C@H]2O)cc1)C(=O)OCc1ccc(O[C@@H]2O[C@H](CO)[C@@H](O)[C@H](O)[C@H]2O)cc1 (stereo partly drawn) [Parishin B] is ____.
A. 7.22e-05

Q. Fill blank: measured k el of the molecule O=C(CC(O)(CC(=O)OCc1ccc(O[C@@H]2O[C@H](CO)[C@@H](O)[C@H](O)[C@H]2O)cc1)C(=O)OCc1ccc(O[C@@H]2O[C@H](CO)[C@@H](O)[C@H](O)[C@H]2O)cc1)OCc1ccc(O[C@@H]2O[C@H](CO)[C@@H](O)[C@H](O)[C@H]2O)cc1 [ParishinA, Parishin A] is ____.
A. 1.39e-05

###

test: Pharmacokinetic study in rats after oral administration of GR extract (UHPLC-MS/MS of plasma); format: in vivo, Sprague-Dawley rats; details: rat plasma, GR extract 9.6 g/kg intragastric gavage, mean ± SD, n = 6
recorded_endpoint: CL (clearance) (mL/min/kg)

Q. Fill blank: measured CL (clearance) of the compound `OCc1ccc(O[C@@H]2O[C@H](CO)[C@@H](O)[C@H](O)[C@H]2O)cc1` is ____.
A. 2.33

A. O=C(CC(O)(CC(=O)OCc1ccc(O[C@@H]2O[C@H](CO)[C@@H](O)[C@H](O)[C@H]2O)cc1)C(=O)OCc1ccc(O[C@@H]2O[C@H](CO)[C@@H](O)[C@H](O)[C@H]2O)cc1)OCc1ccc(O[C@@H]2O[C@H](CO)[C@@H](O)[C@H](O)[C@H]2O)cc1
B. NC(=O)c1cccnc1 [Nicotinamide]
Q. For the pair A and B , which entry has the numerically smaller recorded CL (clearance)? Please identify the chosen entry by its label.
A. A

###

assay: Pharmacokinetic study in rats after oral administration of GR extract (UHPLC-MS/MS of plasma); format: in vivo, Sprague-Dawley rats; settings: rat plasma, GR extract 9.6 g/kg intragastric gavage, mean ± SD, n = 6
This listing pairs compounds with measured Vz (apparent volume of distribution).
Note: unit L/kg is implicit; provide only the numeric part.

Q. Fill blank: measured Vz (apparent volume of distribution) of the compound O=C(CC(O)(CC(=O)OCc1ccc(O[C@@H]2O[C@H](CO)[C@@H](O)[C@H](O)[C@H]2O)cc1)C(=O)OCc1ccc(O[C@@H]2O[C@H](CO)[C@@H](O)[C@H](O)[C@H]2O)cc1)OCc1ccc(O[C@@H]2O[C@H](CO)[C@@H](O)[C@H](O)[C@H]2O)cc1 [ParishinA, Parishin A] is ____.
A. 808.82

Q. Fill blank: measured Vz (apparent volume of distribution) of the compound OCc1ccc(O)cc1 [p-Hydroxybenzyl alcohol] is ____.
A. 0.24

Continuing:
Q. Fill blank: measured Vz (apparent volume of distribution) of the compound OCc1ccc(O[C@@H]2O[C@H](CO)[C@@H](O)[C@H](O)[C@H]2O)cc1 [Gastrodin] is ____.
A. 4.29
